From: patent US11596639B2

Tested on: H929 human cancer cell lines
Assay: Cellular viability / proliferation (Cell TiterGlo, 72 h)
Format: cell-based
Settings: Homo sapiens, NCI-H929, 72 h, read-out: GI50 on cellular proliferation of H929 human cancer cell lines, H929 cells, 72 h, Cell TiterGlo, 10% FBS
valueType: GI50 (nM)

compound	targetUnderTest	prefixOperator	readoutValue
Cc1cc(OCCCc2c3n(c4c(-c5c(C)nn(C)c5C)c(Cl)ccc24)CCCN(c2cc(C(=O)O)c4cnn(C(C)C)c4c2)C3=O)cc(C)c1Cl	H929 human cancer cell lines	=	900
Cc1cccc(OCCCc2c3n(c4c(-c5c(C)nn(C)c5C)c(Cl)ccc24)[C@H](C)CN(c2cn(C)c4ccc(C(=O)O)cc24)C3=O)c1	H929 human cancer cell lines	=	460
Cc1cc(OCCCc2c3n(c4c(-c5c(C)nn(C)c5C)c(Cl)ccc24)[C@H](C)CN(c2cc(NCc4ccccn4)cc4c(C(=O)O)cn(C)c24)C3=O)cc(C)c1Cl	H929 human cancer cell lines	=	890
COCCn1c(C(=O)O)cc2c(OC)ccc(N3C[C@@H](C)n4c(c(CCCOc5cc(C)c(Cl)c(C)c5)c5ccc(Cl)c(-c6c(C)ncnc6C)c54)C3=O)c21	H929 human cancer cell lines	<	200
COCCn1c(C(=O)O)cc2cc(C)cc(N3C[C@@H](C)n4c(c(CCCOc5cc(C)c(Cl)c(C)c5)c5ccc(Cl)c(-c6c(C)nc(CN7CCN(C)C(=O)C7)nc6C)c54)C3=O)c21	H929 human cancer cell lines	=	260
Cc1cc(OCCCc2c3n(c4c(-c5c(C)nn(C)c5C)c(Cl)ccc24)[C@H](C)CN(c2cc(C(=O)O)cc4c2cnn4C)C3=O)cc(C)c1Cl	H929 human cancer cell lines	=	1200
Cc1cc(N2C[C@@H](C)n3c(c(CCCOc4cc(C)c(Cl)c(C)c4)c4ccc(Cl)c(-c5c(C)n[nH]c5C)c43)C2=O)c2c(c1)cc(C(=O)O)n2Cc1ccccn1	H929 human cancer cell lines	=	640
Cc1cc(OCCCc2c3n(c4c(-c5c(C)ncnc5C)c(C)ccc24)[C@H](C)CN(c2cccc4cc(C(=O)O)n(Cc5ccccn5)c24)C3=O)cc(C)c1Cl (atropisomer, axis not shown)	H929 human cancer cell lines	=	260
Cc1cc(OCCCc2c3n(c4c(-c5c(C)nn(C)c5C)c(Cl)ccc24)[C@H](C)CN(c2ccc4cc(C(=O)O)n(C)c4c2)C3=O)cc(C)c1Cl	H929 human cancer cell lines	=	790
COCCOc1cc(N2C[C@@H](C)n3c(c(CCCOc4cc(C)c(Cl)c(C)c4)c4ccc(Cl)c(-c5c(C)ncnc5C)c43)C2=O)c2c(c1)cc(C(=O)O)n2Cc1cc(C)ccn1	H929 human cancer cell lines	<	200
Cc1cc(N2C[C@@H](C)n3c(c(CCCOc4cc(C)c(Cl)c(C)c4)c4ccc(Cl)c(-c5c(C)nn(C)c5C)c43)C2=O)c2c(c1)cc(C(=O)O)n2Cc1cc(N2CCN(C)CC2)ccn1	H929 human cancer cell lines	=	610

###

Biological target: Mcl-1 (Homo sapiens (Human))
Sequence (Q07820 172-327): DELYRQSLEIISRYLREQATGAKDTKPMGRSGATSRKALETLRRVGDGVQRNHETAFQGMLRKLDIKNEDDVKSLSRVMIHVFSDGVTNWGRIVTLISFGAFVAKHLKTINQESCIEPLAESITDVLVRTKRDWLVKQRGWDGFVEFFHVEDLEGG
Assay: Fluorescence polarization anisotropy (FPA) competition assay, FITC-Bak or FITC-Bim BH3 peptide
Format: binding
Conditions: read-out: Ki for Inhibition of Mcl-1 by FPA assay
valueType: Ki (nM)

> print(dat)
                               smilesrecord  valuetype  prefixoperator  readoutvalue
1  Cc1cc(OCCCc2c3n(c4c(-c5c(C)nn(C)c5C)c(Cl)ccc24)[C@H](C)CN(c2ccc4cc(C(=O)O)ccc4c2)C3=O)cc(C)c1Cl         Ki               =           4.6
2  Cc1nn(C)c(C)c1-c1c(Cl)ccc2c(CCCOCC3CC3)c3n(c12)[C@H](C)CN(c1cn(C)c2ccc(C(=O)O)cc12)C3=O         Ki               =            44
3  Cc1cc(OCCCc2c3n(c4c(-c5c(C)nn(C)c5C)c(Cl)ccc24)[C@H](C)CN(c2cccc4cc(C(=O)O)n(Cc5cncnc5)c24)C3=O)cc(C)c1Cl         Ki               <             1
